Let's look at some molecules and their measured pEC50.
EXPERIMENTAL_TARGET: Human TREM2 (Homo sapiens)
RUN_DESCRIPTION: Human TREM2 activity by cellular phosphorylation of Syk (AlphaLISA SureFire Ultra p-SYK) in HEK293/DAP12+TREM2 stable cell line
REPORTED_CONDITIONS: phospho-Syk AlphaScreen signal, HEK293/DAP12+TREM2 cells, 30 min incubation; concentration giving 50% of maximal response
pEC50: −log10 of the molar value.

Examples with answers:
- COc1cc([C@H]2CN(c3nc(-c4ccc(C#N)cc4F)c4nc(C(F)(F)F)n(C)c(=O)c4n3)C[C@@H](C)O2)ccn1 (single isomer, unassigned): > 9.00
- Cn1cc([C@H]2CN(c3nc(-c4ccc(C#N)cc4F)c4nc(C(F)(F)F)n(C)c(=O)c4n3)CCO2)cn1: > 9.00
- C[C@H]1CN(c2nc(-c3ccc(C#N)cc3)c3nc(C(F)(F)F)n(C)c(=O)c3n2)C[C@@H](c2cnn(C)c2)O1 (single isomer, unassigned) [Example 10B]: 8.00 to 9.00
- C[C@@H]1CN(c2cc3c(=O)n(C)c(C(F)(F)F)nc3c(-c3ccc(C#N)cc3F)n2)C[C@H](c2cnn(C3CC3)c2)O1 (single isomer, unassigned) [Example 13A]: > 9.00
- Cn1cc([C@@H]2CN(c3nc(-c4ccc(C#N)cc4F)c4nc(C(F)(F)F)n(C)c(=O)c4n3)CC(F)(F)O2)cn1 (single isomer, unassigned): 8.00 to 9.00

Which pEC50 reading was recorded for the molecule COc1cc([C@@H]2CN(c3nc(-c4ccc(C#N)cc4F)c4nc(C(F)(F)F)n(C)c(=O)c4n3)CCO2)ccn1 (single isomer, unassigned) ? 7.00 to 8.00

Which pEC50 reading was recorded for the molecule `Cn1cc([C@H]2CN(c3cc4c(=O)n(C)c(C(F)(F)F)nc4c(-c4ccc(C#N)cc4F)n3)CCO2)cn1` ? 8.00 to 9.00

###

Let's look at some compounds and their measured EC50.
EXPERIMENTAL_TARGET: Human TREM2 (Homo sapiens, UniProt Q9NZC2)
Sequence (Q9NZC2 19-230): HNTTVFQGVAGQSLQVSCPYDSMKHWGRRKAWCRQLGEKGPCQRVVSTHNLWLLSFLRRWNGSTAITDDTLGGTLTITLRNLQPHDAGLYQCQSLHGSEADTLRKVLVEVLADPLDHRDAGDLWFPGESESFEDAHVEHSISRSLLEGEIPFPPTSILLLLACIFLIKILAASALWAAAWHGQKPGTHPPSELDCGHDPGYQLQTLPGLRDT
Sequence (O43914 22-113 partner): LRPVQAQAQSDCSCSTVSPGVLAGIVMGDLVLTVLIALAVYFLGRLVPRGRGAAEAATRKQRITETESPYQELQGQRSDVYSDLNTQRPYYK
RUN_DESCRIPTION: Human TREM2 activity by cellular phosphorylation of Syk (AlphaLISA SureFire Ultra p-SYK) in HEK293/DAP12+TREM2 stable cell line
REPORTED_CONDITIONS: phospho-Syk AlphaScreen signal, HEK293/DAP12+TREM2 cells, 30 min incubation; concentration giving 50% of maximal response

Examples with answers:
* Cc1nc2c(-c3ccc(F)cc3F)nc(N3C[C@@H](C)O[C@@H](c4cnn(C5CC5)c4)C3)nc2c(=O)n1C | 1 to 10 nM
* C[C@@H]1CN(c2nc(-c3ccc(F)cc3F)c3ncn(C)c(=O)c3n2)C[C@H](c2cnn(C3CC3)c2)O1 | 10 to 100 nM
* C[C@H]1CN(c2nc(-c3ccc(C#N)cc3F)c3nc(C(F)(F)F)n(C)c(=O)c3n2)C[C@@H](c2cnn(C3CC3)c2)O1 (single isomer, unassigned) | 1 to 10 nM
* C[C@@H]1CN(c2nc(-c3ccc(C#N)cc3)c3nc(C(F)(F)F)n(C)c(=O)c3n2)C[C@H](c2cnn(C)c2)O1 (single isomer, unassigned) [Example 10A] | < 1 nM
* Cn1cc([C@H]2CN(c3nc(-c4ccc(C#N)cc4F)c4nc(C(F)(F)F)n(C)c(=O)c4n3)CC(F)(F)O2)cn1 (single isomer, unassigned) | < 1 nM

Which EC50 reading was recorded for the compound C[C@H]1CN(c2nc(-c3ccc(C#N)cc3)c3nc(C(F)(F)F)n(C)c(=O)c3n2)C[C@@H](c2cnn(C3CC3)c2)O1 (single isomer, unassigned) [Example 11B] ? 1 to 10 nM

Which EC50 reading was recorded for the compound COc1ccc(-c2nc(N3C[C@@H](C)O[C@@H](c4cnn(C5CC5)c4)C3)nc3c(=O)n(C)c(C(F)(F)F)nc23)c(F)c1 (single isomer, unassigned) ? < 1 nM

###

Let's look at some molecules and their measured EC50.
EXPERIMENTAL_TARGET: UniProt Q9NZC2
RUN_DESCRIPTION: Human TREM2 activity by cellular phosphorylation of Syk (AlphaLISA SureFire Ultra p-SYK) in HEK293/DAP12+TREM2 stable cell line
REPORTED_CONDITIONS: phospho-Syk AlphaScreen signal, HEK293/DAP12+TREM2 cells, 30 min incubation; concentration giving 50% of maximal response

Examples with answers:
- COc1cc([C@H]2CN(c3nc(-c4ccc(F)cc4F)c4nc(C(F)(F)F)n(C)c(=O)c4n3)CCO2)ccn1 (single isomer, unassigned) [Example 12A]: < 1 nM
- COc1ccc(-c2nc(N3CCO[C@@H](c4cnn(C)c4)C3)nc3c(=O)n(C)c(C(F)(F)F)nc23)c(F)c1 [Example 2]: 1 to 10 nM

Next, consider the following molecule.
Which EC50 reading was recorded for the molecule COc1cc([C@@H]2CN(c3nc(-c4ccc(F)cc4F)c4nc(C(F)(F)F)n(C)c(=O)c4n3)CCO2)ccn1 (single isomer, unassigned) [Example 12B] ? 10 to 100 nM

###

EXPERIMENTAL_TARGET: Human TREM2 (Homo sapiens)
Construct: expressed in transfected cells
RUN_DESCRIPTION: Human TREM2 activity by cellular phosphorylation of Syk (AlphaLISA SureFire Ultra p-SYK) in HEK293/DAP12+TREM2 stable cell line
Assay type: cell-based
REPORTED_CONDITIONS: maximal response relative to the maximal response of the reference agonist (8-(4-chloro-2-fluorophenyl)-2,3-dimethyl-6-[(2S)-2-(1-methyl-1H-pyrazol-4-yl)morpholin-4-yl]-3H,4H-[1,3]diazino[5,4-d]pyrimidin-4-one); HEK293/DAP12+TREM2 cells
Let's look at some molecules and their measured Emax.

Examples with answers:
- COc1cc([C@@H]2CN(c3nc(-c4ccc(C#N)cc4F)c4nc(C(F)(F)F)n(C)c(=O)c4n3)CCO2)ccn1 (single isomer, unassigned): 75 to 110%
- Cn1cc([C@H]2CN(c3nc(-c4ccc(C#N)cc4F)c4nc(C(F)(F)F)n(C)c(=O)c4n3)CCO2)cn1: 75 to 110%

Which Emax reading was recorded for the molecule Cn1cc([C@@H]2CN(c3cc4c(=O)n(C)c(C(F)(F)F)nc4c(-c4ccc(C#N)cc4F)n3)CC(F)(F)O2)cn1 (single isomer, unassigned) [Example 14B] ? 75 to 110%

###

EXPERIMENTAL_TARGET: Human TREM2 (Homo sapiens, UniProt Q9NZC2)
Construct: expressed in transfected cells
RUN_DESCRIPTION: Human TREM2 activity by cellular phosphorylation of Syk (AlphaLISA SureFire Ultra p-SYK) in HEK293/DAP12+TREM2 stable cell line
Format: cell-based
REPORTED_CONDITIONS: maximal response relative to the maximal response of the reference agonist (8-(4-chloro-2-fluorophenyl)-2,3-dimethyl-6-[(2S)-2-(1-methyl-1H-pyrazol-4-yl)morpholin-4-yl]-3H,4H-[1,3]diazino[5,4-d]pyrimidin-4-one); HEK293/DAP12+TREM2 cells
QUANTITY_KIND: Emax

• COc1cc([C@@H]2CN(c3nc(-c4ccc(C#N)cc4F)c4nc(C(F)(F)F)n(C)c(=O)c4n3)C[C@H](C)O2)ccn1 (single isomer, unassigned) = 75 to 110%
• C[C@H]1CN(c2nc(-c3ccc(C#N)cc3F)c3nc(C(F)(F)F)n(C)c(=O)c3n2)C[C@@H](c2cnn(C)c2)O1 (single isomer, unassigned) = 75 to 110%
• Cn1cc([C@H]2CN(c3cc4c(=O)n(C)c(C(F)(F)F)nc4c(-c4ccc(C#N)cc4F)n3)CC(F)(F)O2)cn1 (single isomer, unassigned) [Example 14A] = 75 to 110%

Which Emax reading was recorded for the molecule COc1cc([C@H]2CN(c3nc(-c4ccc(C#N)cc4F)c4nc(C(F)(F)F)n(C)c(=O)c4n3)CCO2)ccn1 (single isomer, unassigned) ? 75 to 110%

Which Emax reading was recorded for the molecule `Cn1cc([C@H]2CN(c3nc(-c4ccc(C#N)cc4)c4nc(C(F)(F)F)n(C)c(=O)c4n3)CCO2)cn1` ? < 75%

Which Emax reading was recorded for the molecule C[C@H]1CN(c2cc3c(=O)n(C)c(C(F)(F)F)nc3c(-c3ccc(C#N)cc3F)n2)C[C@@H](c2cnn(C3CC3)c2)O1 (single isomer, unassigned) [Example 13B] ? 75 to 110%

###

EXPERIMENTAL_TARGET: Human TREM2 (Homo sapiens, UniProt Q9NZC2)
Construct: expressed in transfected cells
RUN_DESCRIPTION: Human TREM2 activity by cellular phosphorylation of Syk (AlphaLISA SureFire Ultra p-SYK) in HEK293/DAP12+TREM2 stable cell line
Format: cell-based
REPORTED_CONDITIONS: maximal response relative to the maximal response of the reference agonist (8-(4-chloro-2-fluorophenyl)-2,3-dimethyl-6-[(2S)-2-(1-methyl-1H-pyrazol-4-yl)morpholin-4-yl]-3H,4H-[1,3]diazino[5,4-d]pyrimidin-4-one); HEK293/DAP12+TREM2 cells
QUANTITY_KIND: Emax

- Cn1cc([C@H]2CN(c3cc4c(=O)n(C)c(C(F)(F)F)nc4c(-c4ccc(C#N)cc4F)n3)CCO2)cn1 [Example 15]: 75 to 110%

Which Emax reading was recorded for the molecule C[C@@H]1CN(c2nc(-c3ccc(C#N)cc3F)c3nc(C(F)(F)F)n(C)c(=O)c3n2)C[C@H](c2cnn(C3CC3)c2)O1 (single isomer, unassigned) [Example 5A] ? > 110%

Which Emax reading was recorded for the molecule COc1ccc(-c2nc(N3CCO[C@@H](c4cnn(C)c4)C3)nc3c(=O)n(C)c(C(F)(F)F)nc23)c(F)c1 [Example 2] ? 75 to 110%

Which Emax reading was recorded for the molecule `Cc1nc2c(-c3ccc(F)cc3F)nc(N3C[C@@H](C)O[C@@H](c4cnn(C5CC5)c4)C3)nc2c(=O)n1C` ? 75 to 110%

Which Emax reading was recorded for the molecule COc1ccc(-c2nc(N3C[C@@H](C)O[C@@H](c4cnn(C5CC5)c4)C3)nc3c(=O)n(C)c(C(F)(F)F)nc23)c(F)c1 (single isomer, unassigned) [Example 4] ? 75 to 110%

Which Emax reading was recorded for the molecule COc1cc([C@H]2CN(c3nc(-c4ccc(F)cc4F)c4nc(C(F)(F)F)n(C)c(=O)c4n3)CCO2)ccn1 (single isomer, unassigned) [Example 12A] ? 75 to 110%

Which Emax reading was recorded for the molecule Cn1cc([C@H]2CN(c3nc(-c4ccc(C#N)cc4F)c4nc(C(F)(F)F)n(C)c(=O)c4n3)CC(F)(F)O2)cn1 (single isomer, unassigned) [Example 7A] ? > 110%

Which Emax reading was recorded for the molecule Cn1cc([C@@H]2CN(c3nc(-c4ccc(C#N)cc4F)c4nc(C(F)(F)F)n(C)c(=O)c4n3)CC(F)(F)O2)cn1 (single isomer, unassigned) [Example 7B] ? 75 to 110%

Values were extracted from patent US12459953B2.
